Origin of the recorded values: patent US20260272964A1

assay: Lactate dehydrogenase (LDH) cytotoxicity assay
Assay type: cell-based, human
run_parameters: human; HaCaT, LDH assay
measurement_label: IC50 (µg/mL)

molecule	unit_of_measurement	numeric_readout
O=C(OC[C@H]1O[C@@H](OC(=O)c2cc(O)c(O)c(O)c2)[C@H](OC(=O)c2cc(O)c(O)c(O)c2)[C@@H](OC(=O)c2cc(O)c(O)c(O)c2)[C@@H]1OC(=O)c1cc(O)c(O)c(O)c1)c1cc(O)c(O)c(O)c1 [PGG]	µg/mL	256
